assay: in vitro microsomal stability; settings: n=2, T1/2=Ln2/κ
Consider the cut-off 0.1. If the recorded κ (decay constant, slope of log concentration vs time profile) is strictly smaller, the label is Yes; if not, the label is No.

{"COMPOUND_STRUCTURE_STRING": "O=C(Nc1ccc(Cl)c(OCF)c1)c1ccccn1", "CAT": "No"}
{"COMPOUND_STRUCTURE_STRING": "[2H]C([2H])(F)Oc1cc(NC(=O)c2ccccn2)ccc1Cl", "CAT": "Yes"}
{"COMPOUND_STRUCTURE_STRING": "COc1cc(NC(=O)c2ccccn2)ccc1Cl", "CAT": "No"}
{"COMPOUND_STRUCTURE_STRING": "O=C(Nc1cccc(OC(F)F)c1)c1ccccn1", "CAT": "No"}
